# assay_method_text: Critical aggregation concentration from SAXS fit analysis
# Type: physicochemical
Non-standard residues stand in square brackets, D forms with d. Residues, ends and D or L forms follow the SMILES beside them. Gly(Nα-4-Cl-benzyl) = O=C(O)CNCc1ccc(Cl)cc1; N(4-Br-benzyl)Gly = O=C(O)CNCc1ccc(Br)cc1; NBzl(4-I)Gly = O=C(O)CNCc1ccc(I)cc1; Nphe = O=C(O)CNCc1ccccc1; Nlys = NCCCCNCC(=O)O
reported_property: critical aggregation concentration (CAC)

query: Query: critical aggregation concentration (CAC); subject: NCCCCNCC(=O)N(CC(=O)N(CCCCN)CC(=O)N(CC(=O)N(CCCCN)CC(=O)N(CC(=O)N(CCCCN)CC(=O)N(CC(N)=O)Cc1ccc(I)cc1)Cc1ccc(I)cc1)Cc1ccc(I)cc1)Cc1ccc(I)cc1 [Compound 14] (H-[Nlys][NBzl(4-I)Gly][Nlys][NBzl(4-I)Gly][Nlys][NBzl(4-I)Gly][Nlys][NBzl(4-I)Gly]-NH2)
result: 1.4 mg/mL

query: Next: NCCCCNCC(=O)N(CC(=O)N(CCCCN)CC(=O)N(CC(=O)N(CCCCN)CC(=O)N(CC(N)=O)Cc1ccc(I)cc1)Cc1ccc(I)cc1)Cc1ccc(I)cc1 [Compound 5] (H-[Nlys][NBzl(4-I)Gly][Nlys][NBzl(4-I)Gly][Nlys][NBzl(4-I)Gly]-NH2)
result: 2.8 mg/mL

query: Next: NCCCCNCC(=O)N(CC(=O)N(CCCCN)CC(=O)N(CC(=O)N(CCCCN)CC(=O)N(CC(=O)N(CCCCN)CC(=O)N(CC(=O)N(CCCCN)CC(=O)N(CC(N)=O)Cc1ccc(Br)cc1)Cc1ccccc1)Cc1ccc(Br)cc1)Cc1ccccc1)Cc1ccc(Br)cc1 [Compound 26] (H-[Nlys][N(4-Br-benzyl)Gly][Nlys][Nphe][Nlys][N(4-Br-benzyl)Gly][Nlys][Nphe][Nlys][N(4-Br-benzyl)Gly]-NH2)
result: > 5 mg/mL

query: Next: NCCCCNCC(=O)N(CC(=O)N(CCCCN)CC(=O)N(CC(=O)N(CCCCN)CC(=O)N(CC(=O)N(CCCCN)CC(=O)N(CC(=O)N(CCCCN)CC(=O)N(CC(N)=O)Cc1ccc(Cl)cc1)Cc1ccccc1)Cc1ccc(Cl)cc1)Cc1ccccc1)Cc1ccc(Cl)cc1 [Compound 25] (H-[Nlys][Gly(Nα-4-Cl-benzyl)][Nlys][Nphe][Nlys][Gly(Nα-4-Cl-benzyl)][Nlys][Nphe][Nlys][Gly(Nα-4-Cl-benzyl)]-NH2)
result: > 5 mg/mL
